Tested on: ORYSAT (Rice, Tebonnet)
MEASUREMENT NOTES: Postemergence herbicidal evaluation
Format: in vivo, Oryza sativa, (L.) Tebonnet
CONDITIONS: postemergence, rate 0.0158 kg/ha
ASSAY ENDPOINT: ORYSAT herbicidal rating

{"columns": ["MOLECULE", "VALUE"],
 "data": [
  ["CCOC(=O)[C@H](C)N1C(=O)CSC1=Nc1cc(-n2c(=O)cc(C(F)(F)F)n(C)c2=O)c(F)cc1Cl [Compound 76]", 3.0],
  ["C=CCN1C(=O)CSC1=Nc1cc(-n2c(=O)cc(C(F)(F)F)n(C)c2=O)c(F)cc1Cl [Compound 27]", 2.0],
  ["Cn1c(C(F)(F)F)cc(=O)n(-c2cc(N=C3SCC(=O)N3[C@H](Cc3ccccc3)C(=O)O)c(Cl)cc2F)c1=O [Compound 69]", 2.5]
]}

FYI, the data here is from patent US20020137929A1.
